System: Rattus norvegicus
protocol_notes: Inhibition of SERT-mediated 5-HT uptake in Wistar rat brain at 15 mg/kg, ip measured after 24 hrs
Format: functional
protocol_conditions: route intraperitoneal
Kindly supply the reported inhibition in vivo at 15 mg/kg values for the records listed here.
Respond numerically; units are % and should not be typed.

query: Recorded inhibition in vivo at 15 mg/kg of CC(N)Cc1scc(Cl)c1Cl.Cl (racemic) , please.
result: 0.4

query: Recorded inhibition in vivo at 15 mg/kg of CC(N)Cc1ccc(Cl)s1.Cl (racemic) , please.
result: 4.1

query: Recorded inhibition in vivo at 15 mg/kg of CC(N)Cc1sc(Cl)cc1Cl.Cl (racemic) , please.
result: 24.5

query: Recorded inhibition in vivo at 15 mg/kg of CC(N)Cc1cc(Cl)cs1.Cl (racemic) , please.
result: 6.7

query: Recorded inhibition in vivo at 15 mg/kg of CC(N)Cc1cc(Cl)c(Cl)s1.Cl (racemic) , please.
result: 30.4

---

Test system: Mus musculus
protocol_notes: Increase in spontaneous locomotor activity in ICR Swiss mouse at 10 mg/kg, ip measured after 30 to 270 mins post compound administration
Format: functional, organism-based
Parameters: dose 10 mg/kg
Calls of active or inactive are those of the source. The rule behind the calls is not given here.
Select the correct class. Options are TRUE for active, FALSE for inactive and nothing else.

query: So what was the verdict on CC(N)Cc1sccc1Cl.Cl (racemic) in this test?
result: FALSE

query: So what was the verdict on CC(N)Cc1sc(Cl)cc1Cl.Cl (racemic) in this test?
result: FALSE

query: So what was the verdict on CC(N)Cc1ccc(Cl)s1.Cl (racemic) in this test?
result: TRUE

query: So what was the verdict on CC(N)Cc1cc(Cl)cs1.Cl (racemic) in this test?
result: TRUE

query: So what was the verdict on CC(N)Cc1cccs1.Cl (racemic) in this test?
result: TRUE

query: So what was the verdict on CC(N)Cc1scc(Cl)c1Cl.Cl (racemic) in this test?
result: TRUE

query: So what was the verdict on CC(N)Cc1cc(Cl)c(Cl)s1.Cl (racemic) in this test?
result: TRUE
